For each of the compounds below, state its melting point.

Look up and report measured melting point for this entry: CCCCCCCCCCC1CCCC1C(=O)Nc1c(OC)ccc2ncccc12 (stereo not drawn)
57 to 58 °C

Could you please provide reported melting point for "CC1([C@H]2CC[C@@H](O)CC2)CC1" ? Thanks!
56 to 57 °C

Write down melting point measured for item "CCCc1nn(-c2ccc(C(F)(F)F)cn2)cc1CCCOc1ccc(CC(=O)O)cc1"
101 to 102 °C

----------
Give melting point for every item shown.

Given the molecule CCOC(=O)C1=Cc2cc(C#N)ccc2NC1C(F)(F)F (stereo not drawn) , write its reported melting point.
211 to 212 °C

Note melting point for the molecule shown: "CC(C)(C)OC(=O)N1CCN(C(=O)CCl)CC1"
68 to 70 °C

Complete the entry with melting point for CC(=O)OCC(=O)c1cc2c(s1)CCC1CC(=O)N(c3ccc(C)cc3)N=C21 (stereo not drawn)
144 to 145 °C
